Tested on: intracellular proteome of ENR+CD and ENR organoids
Test: LC-MS/MS TMT proteomics of ENR+CD versus ENR organoids
Format: cell-based, C57BL/6 mice
Settings: protein abundance ratio ENR+CD versus ENR organoids, sample pair M1-2; LC-MS/MS TMT proteomics
Assay endpoint: M1-2 Log2 Median Normalized

Use the examples below as a reference point.
# Molecule, M1-2 Log2 Median Normalized
records = [
    ("Q9CPY1 (protein, UniProt Q9CPY1 1-128, looked up, full-length) MAGSVPWAASRRLWGWVPSACRSFSLGVPRLAFVRLTLPPPKVVDRWNEKRALFGVYDNIGILGNFEKHPKELIKGPVWLRGWRGNELQRCVRKKKFVGNRMFIEDLHNLNKRISYLYKHFNRHGKYR", "−0.766"),
    ("Q7TQD2 (protein, UniProt Q7TQD2 1-218, looked up, full-length) MADSKAKPAKAANKTPPKSPGDPARAAKRLSLESEGANEGATAAPELSALEEAFRRFAVHGDTRATGKEMHGKNWSKLCKDCHVIDGKNVTVTDVDIVFSKIKGKSCRTITFEQFQEALEELAKKRFKDKSSEEAVREVHRLIEGRAPVISGVTKAVSSPTVSRLTDTSKFTGSHKERFDQSGKGKGKAGRVDLVDESGYVPGYKHAGTYDQKVQGGK", 1.666),
]

// returns reported M1-2 Log2 Median Normalized for input Q4V9W2 (protein, UniProt Q4V9W2 1-153, looked up, full-length) MAVPGCNKDNVRAGCRKCGYPGHLTFECRNFLRVDPKRDIVLDVSSTSSEDSDEENEELNKLQALQEKRINEEEEKKKEKSREKIKLKKRRKRSYSSATEEDSAKQKKQKYQKKEKKKEKKNKSKKGKHHKKEKKKRKKEKRSSPYHSELTKK
−0.824
